The measurements presented in this section are drawn from patent US7563462B2.

- System: colon (LS174)
- MEASUREMENT PROTOCOL: Effect of 13-S-HODE on proliferation, LS174
- Assay type: cell-based
- CONDITION DESCRIPTION: Homo sapiens, read-out: IC50 (inhibition of cancer cell line growth)
pIC50: −log10 of the molar value.
OBSERVABLE: pIC50

**Q:** State its pIC50 for this compound: CCCCCC(O)/C=C/C=C\CCCCCCCC(=O)O (stereo not shown) [13-S-HODE, 13-hydroxyoctadeca-9Z, 11E-dienoic acid]
**A:** 5.40 to 5.52

----------
- Test system: human tumor prostate (PC3)
- MEASUREMENT PROTOCOL: Effect of 13-S-HODE on proliferation, PC3
- Type: cell-based
- CONDITION DESCRIPTION: read-out: IC50 (inhibition of cancer cell line growth)
- Protocol: The relative ability of 13-S-HODE to inhibit prostate and colon cancer cell lines with an IC50 of about 3-4 uM. This is of importance when compared to the content of 13-S-HODE in the inventive composition. That is, as shown in Table 2 above there is sufficient 13-S-HODE within the composition to account for inhibition of cell growth. […]
OBSERVABLE: IC50

**Q:** Check human tumor prostate (PC3) data and give IC50 for CCCCCC(O)/C=C/C=C\CCCCCCCC(=O)O (stereo not shown) [13-S-HODE, 13-hydroxyoctadeca-9Z, 11E-dienoic acid] .
**A:** 3 to 4 µM
